# targetOrTestSystem: human CAIX antigen (purchased from AcroBiosystems) (human, UniProt Q16790 38-414)
# assayRemarks: BLI (ForteBio), method of Example 3
readoutKind: Kd
Dear colleague, please send the value followed by its unit.

Task item: Name the recorded Kd of the item Hu-H-YE-05-D3 (Fc fusion, also called humanized recombinant antibody from H-YE-05; not shown: human IgG1 Fc segment) EVQLLESGGGLVQPGGSLRLSCAASGNSVNIFSFAAMSWYRQAPGKGLELVAVITTTGGTKYSDSVKGRFTISRDNSKNTLYLQMNSLRAEDTAVYYCNADYLQDYWGQGTQVTVSS in your answer.
Reply: 10.3 nM

Task item: Name the recorded Kd of the item Hu-H-YE-32-D6 (Fc fusion, also called humanized antibody from H-YE-32; not shown: human IgG1 Fc segment) QVQLVESGGGLVQPGGSLRLSCSASGGARNIFSFAAMAWYRQAPGKGLELVAVITSAGGTQYSSSVKGRFTISRDNSKKTLYLQMNSLRAEDTAVYYCNADYYQDYWGQGTQVTVSS in your answer.
Reply: 0.384 nM

Task item: Name the recorded Kd of the item Hu-H-YE-23-D2 (Fc fusion, T0013 prints the label as Hu-H-YB-23-D2; also called Hu-H-YB-23-D2; humanized recombinant antibody from H-YE-23; not shown: human IgG1 Fc segment) QVQLVESGGGLVQPGGSLRLSCSASGNSANIFSFASVAWYRQAPGKGLELVSVITSAGGTKYSDSVKGRFTISRDNSKNTLYLQMNSLRAEDTAVYYCNVDYLQDYWGQGTLVTVSS in your answer.
Reply: 6.68 nM

Task item: Name the recorded Kd of the item Hu-H-YE-05-D4 (Fc fusion, also called humanized recombinant antibody from H-YE-05; not shown: human IgG1 Fc segment) EVQLLESGGGLVQPGGSRRLSCAASGNSVNIFSFAAVAWYRQAPGKQRELVAVITTTGGTKYSDSVKGRFTISRDSSKNTVYLQMNSLRAEDTAVYYCNADYLQDYWGQGTQVTVSS in your answer.
Reply: 7.84 nM
